Tested on: S. enterica typhimurium tolC KO;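 also: active when median AUC fell below 0.1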
Test: growth AUC normalised to DMSO control (median) (fraction of control); higher = less growth inhibition, active = hit call of the paper
Conditions: 20 µM
Structures can show the parent of a compound that is named as a salt.
For each entry below, report its growth AUC normalised to DMSO control value.
// return a plain number; no unit text

Prompt: Consider the molecule C=C(CC)C(=O)c1ccc(OCC(=O)O)c(Cl)c1Cl and give its measured growth AUC normalised to DMSO control.
Response: 1.02

Prompt: Consider the molecule CCN(CC)CCOCCOC(=O)C1(c2ccccc2)CCCC1 [Carbetapentane citrate] and give its measured growth AUC normalised to DMSO control.
Response: 0.992

Prompt: Consider the molecule Cc1nnc(SCC2=C(C(=O)O)N3C(=O)[C@@H](NC(=O)Cn4cnnn4)[C@H]3SC2)s1 [Cefazolin sodium salt] and give its measured growth AUC normalised to DMSO control.
Response: 0.00476

Prompt: Consider the molecule Cc1cc(/C=C/c2ccc3cc(N(C)C)ccc3[n+]2C)c(C)n1-c1ccccc1 [Pyrvinium pamoate] and give its measured growth AUC normalised to DMSO control.
Response: 0.61

Prompt: Consider the molecule C[C@H](N[C@@H](CCc1ccccc1)C(=O)O)C(=O)N1CCC[C@H]1C(=O)O [Enalaprilat dihydrate] and give its measured growth AUC normalised to DMSO control.
Response: 0.995

Prompt: Consider the molecule Cc1c(Cl)cccc1Nc1ccccc1C(=O)O and give its measured growth AUC normalised to DMSO control.
Response: 0.992

Prompt: Consider the molecule CO/N=C(\C(=O)N[C@@H]1C(=O)N2C(C(=O)O)=C(C[N+]3(C)CCCC3)CS[C@H]12)c1csc(N)n1 [Cefepime hydrochloride] and give its measured growth AUC normalised to DMSO control.
Response: 0.00189

Prompt: Consider the molecule CCOC(=O)C(C)(C)Oc1ccc(Cl)cc1 [Clofibrate] and give its measured growth AUC normalised to DMSO control.
Response: 0.991

Prompt: Consider the molecule C[C@]12C[C@H](O)[C@H]3[C@@H](CCC4=CC(=O)CC[C@@]43C)[C@@H]1CC[C@@H]2C(=O)CO and give its measured growth AUC normalised to DMSO control.
Response: 1

Prompt: Consider the molecule CC(=O)O[C@]1(C(C)=O)CC[C@H]2[C@@H]3C=C(C)C4=CC(=O)CC[C@]4(C)[C@H]3CC[C@@]21C [Megestrol acetate] and give its measured growth AUC normalised to DMSO control.
Response: 0.931

Prompt: Consider the molecule Cc1ccc2c(Cl)cc(Cl)c(O)c2n1 and give its measured growth AUC normalised to DMSO control.
Response: 0.371

Prompt: Consider the molecule COc1ccccc1N1CCN(CCCCNC(=O)c2ccc3ccccc3c2)CC1 and give its measured growth AUC normalised to DMSO control.
Response: 0.753

Prompt: Consider the molecule CCOC(=O)[C@H](CCc1ccccc1)N[C@H]1CCc2ccccc2N(CC(=O)O)C1=O [Benazepril hydrochloride] and give its measured growth AUC normalised to DMSO control.
Response: 1

Prompt: Consider the molecule Nc1ccc(S(=O)(=O)Nc2nccs2)cc1 and give its measured growth AUC normalised to DMSO control.
Response: 0.974

Prompt: Consider the molecule CN(C)c1nc(N(C)C)nc(N(C)C)n1 and give its measured growth AUC normalised to DMSO control.
Response: 0.99

Prompt: Consider the molecule CC1(C)S[C@@H]2[C@H](NC(=O)[C@H](NC(=O)N3CCNC3=O)c3ccccc3)C(=O)N2[C@H]1C(=O)O [Azlocillin sodium salt] and give its measured growth AUC normalised to DMSO control.
Response: 0.00584

Prompt: Consider the molecule C=CCOc1ccc(CC(=O)O)cc1Cl and give its measured growth AUC normalised to DMSO control.
Response: 0.959

Prompt: Consider the molecule OC(CCN1CCCC1)(c1ccccc1)C1CCCCC1 (configuration not stated) [Procyclidine hydrochloride] and give its measured growth AUC normalised to DMSO control.
Response: 0.983

Prompt: Consider the molecule C[C@]12C=CC(=O)C=C1CC[C@H]1[C@@H]3C[C@@H](O)[C@](O)(C(=O)CO)[C@@]3(C)C[C@H](O)[C@@]12F and give its measured growth AUC normalised to DMSO control.
Response: 1.01

Prompt: Consider the molecule CN(C)CCOC1=Cc2ccccc2Sc2ccc(Cl)cc21 [Zotepine] and give its measured growth AUC normalised to DMSO control.
Response: 0.959

Prompt: Consider the molecule Cn1c(=O)c2[nH]cnc2n(C)c1=O and give its measured growth AUC normalised to DMSO control.
Response: 1.01

Prompt: Consider the molecule CN[C@@H]1CCc2[nH]c3ccc(C(N)=O)cc3c2C1 [Frovatriptan succinate] and give its measured growth AUC normalised to DMSO control.
Response: 1

Prompt: Consider the molecule CN[C@@H]1[C@@H](O)[C@@H](O[C@@H]2[C@@H](O)[C@H](O[C@H]3OC(CN)=CC[C@H]3N)[C@@H](N)C[C@H]2N)OC[C@]1(C)O [Sisomicin sulfate] and give its measured growth AUC normalised to DMSO control.
Response: 1.01

Prompt: Consider the molecule Cc1cccc(N(C)C(=S)Oc2ccc3ccccc3c2)c1 [Tolnaftate] and give its measured growth AUC normalised to DMSO control.
Response: 0.981

Prompt: Consider the molecule CC=C(C)C(=O)OC1C(OC(C)=O)C2(CO)C(O)CC3(C)C(=CCC4C5(C)CCC(OC6OC(C(=O)O)C(OC7OC(CO)C(O)C(O)C7O)C(O)C6OC6OC(CO)C(O)C(O)C6O)C(C)(CO)C5CCC43C)C2CC1(C)C (configuration not stated) and give its measured growth AUC normalised to DMSO control.
Response: 1

Prompt: Consider the molecule OCc1cc(C(O)CNCCCCCCOCCCCc2ccccc2)ccc1O (configuration not stated) and give its measured growth AUC normalised to DMSO control.
Response: 0.946

Prompt: Consider the molecule O=C(O)c1cc(-c2ccc(F)cc2F)ccc1O and give its measured growth AUC normalised to DMSO control.
Response: 0.943

Prompt: Consider the molecule NS(=O)(=O)c1cc2c(cc1Cl)NC(C(Cl)Cl)NS2(=O)=O (configuration not stated) [Trichlormethiazide] and give its measured growth AUC normalised to DMSO control.
Response: 0.999

Prompt: Consider the molecule CC[C@H]1OC(=O)[C@H](C)[C@@H](O[C@H]2C[C@@](C)(OC)[C@@H](O)[C@H](C)O2)[C@H](C)[C@@H](O[C@@H]2O[C@H](C)C[C@H](N(C)C)[C@H]2O)[C@](C)(O)C[C@@H](C)C(=O)[C@H](C)[C@@H](O)[C@]1(C)O and give its measured growth AUC normalised to DMSO control.
Response: 0.00339

Prompt: Consider the molecule COc1cccc(N(C)C(=S)Oc2ccc3c(c2)CCCC3)n1 [Liranaftate] and give its measured growth AUC normalised to DMSO control.
Response: 0.909

Prompt: Consider the molecule O=C1[C@@H]2[C@H]3CC[C@H](C3)[C@@H]2C(=O)N1CCCCN1CCN(c2ncccn2)CC1 and give its measured growth AUC normalised to DMSO control.
Response: 0.996

Prompt: Consider the molecule Cc1ccccc1OCC(O)CO (configuration not stated) and give its measured growth AUC normalised to DMSO control.
Response: 1

----------
System: Salmonella enterica typhimurium
Experiment: growth AUC normalised to DMSO control (fraction of control); higher = less growth inhibition, active = hit call of the paper
Settings: 20 µM
Where a name gives a salt, the structure may show the parent alone.
ASSAY_READOUT: growth AUC normalised to DMSO control
// return a plain number; no unit text

Prompt: Consider the compound Cn1nnc2c(C(N)=O)ncn2c1=O [Temozolomide] and give its measured growth AUC normalised to DMSO control.
Response: 0.981

Prompt: Consider the compound NS(=O)(=O)c1cc2c(cc1Cl)NC(CC1CCCC1)NS2(=O)=O (centres undefined) [Cyclopenthiazide] and give its measured growth AUC normalised to DMSO control.
Response: 1

Prompt: Consider the compound OCCN1CCN(CCCN2c3ccccc3Sc3ccc(C(F)(F)F)cc32)CC1 [Fluphenazine dihydrochloride] and give its measured growth AUC normalised to DMSO control.
Response: 1.01

Prompt: Consider the compound COc1ccc(C(Cl)=C(c2ccc(OC)cc2)c2ccc(OC)cc2)cc1 [Chlorotrianisene] and give its measured growth AUC normalised to DMSO control.
Response: 0.994

Prompt: Consider the compound CC1=C(CC(=O)O)c2cc(F)ccc2/C1=C\c1ccc([S+](C)[O-])cc1 (centres undefined) [Sulindac] and give its measured growth AUC normalised to DMSO control.
Response: 0.976

Prompt: Consider the compound OC(CCN1CCCCC1)(c1ccccc1)C1CCCCC1 (centres undefined) [Trihexyphenidyl-D,L hydrochloride] and give its measured growth AUC normalised to DMSO control.
Response: 1

Prompt: Consider the compound CNC1(C)C2CCC(C2)C1(C)C (centres undefined) [Mecamylamine hydrochloride] and give its measured growth AUC normalised to DMSO control.
Response: 1.02

Prompt: Consider the compound COc1ccc(C(=O)c2ccccc2O)c(O)c1 [Dioxybenzone] and give its measured growth AUC normalised to DMSO control.
Response: 0.977

Prompt: Consider the compound COC1=C(OC)C(=O)C(CCCCCCCCCCO)=C(C)C1=O [Idebenone] and give its measured growth AUC normalised to DMSO control.
Response: 1.02

# credit: the supplement of paper PMC12350171
